# key: entry, value: pKd
molecular target: human CD33 R69G (human) (UniProt P20138); experiment: SPR, Fab captured, 37C
Sequence (P20138 18-259 R69G): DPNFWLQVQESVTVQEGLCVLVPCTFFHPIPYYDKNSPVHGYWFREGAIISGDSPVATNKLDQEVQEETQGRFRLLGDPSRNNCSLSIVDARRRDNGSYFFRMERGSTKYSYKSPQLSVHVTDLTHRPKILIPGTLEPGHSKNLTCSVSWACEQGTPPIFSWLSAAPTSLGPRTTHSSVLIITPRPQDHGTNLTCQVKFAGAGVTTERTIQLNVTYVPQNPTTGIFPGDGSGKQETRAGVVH
# reply with the number alone; pKd is -log10 of concentration in mol/L

# annotated cases, reported pKd shown
ADI-10161 Fab (Fab, V domains shown) VH: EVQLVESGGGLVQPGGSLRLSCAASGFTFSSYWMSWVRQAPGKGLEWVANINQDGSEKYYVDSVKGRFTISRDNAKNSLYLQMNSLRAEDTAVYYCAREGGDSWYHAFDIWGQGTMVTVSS VL: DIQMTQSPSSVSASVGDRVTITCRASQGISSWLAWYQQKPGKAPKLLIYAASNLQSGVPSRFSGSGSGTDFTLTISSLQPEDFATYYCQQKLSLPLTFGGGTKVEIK = 7.31
ADI-11812 Fab (Fab, V domains shown) VH: QVQLVQSGAEVKKPGASVKVSCKASGYTFEIYYMHWVRQAPGQGLEWMGIINPSSGSTVYAQKFQGRVTMTRDTSTSTVYMELSSLRSEDTAVYYCARGAGYDDEDMDVWGKGTTVTVSS VL: DIQMTQSPSSVSASVGDRVTITCRASQGIDSWLAWYQQKPGKAPKLLIYAASSLQSGVPSRFSGSGSGTDFTLTISSLQPEDFATYYCQQAHSYPLTFGGGTKVEIK = 8.17

Ask: // pKd lookup, key: ADI-11828 Fab (Fab, V domains shown) VH: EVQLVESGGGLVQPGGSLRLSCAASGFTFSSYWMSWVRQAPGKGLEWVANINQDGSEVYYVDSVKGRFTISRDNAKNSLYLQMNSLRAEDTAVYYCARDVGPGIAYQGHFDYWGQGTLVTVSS VL: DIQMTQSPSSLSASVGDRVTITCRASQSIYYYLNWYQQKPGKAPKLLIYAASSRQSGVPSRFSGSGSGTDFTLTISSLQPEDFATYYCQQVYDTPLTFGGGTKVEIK
Reply: 8.22

This collection of values is drawn from patent US20220380459A1.
